Assay: growth suppression of beta-catenin knockout HCT116, pilot screen, human colon tumor cells (AID 823);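 also: 0% = wells killed by 20 µM Hyamine and 100% = untreated DMSO cell wells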
Conditions: CellTiter-Glo, 60 h, at 10 µM, stronger effect = lower value
Records with an inconclusive call do not appear.
reported property: viability (%)

INSERT INTO assay_data (molecule, quantitative_result) VALUES
  ('O=C(NCc1ccco1)c1nnc(Cc2ccc(F)cc2)o1', 105),
  ('COc1ccc(NC(=O)c2cc3ccccc3o2)cc1', 86.6),
  ('CC(=O)Nc1ccc(OC/C=C(\C)Cl)cc1', 101),
  ('CC(c1ccccc1)C1C(C#N)=C(N)OC2=C1C(=O)CCC2 (stereo unspecified)', 88),
  ('Cc1noc(NS(=O)(=O)c2ccc(NC(=O)CSc3nc4c(cc3C#N)CCCC4)cc2)c1C', 109),
  ('C=C1c2cc(CC)ccc2NC(=O)N1c1ccc(C)cc1', 97.9),
  ('C=C(C)Cn1c(C2CC(=O)N(c3ccccc3F)C2)nc2ccccc21 (stereo unspecified)', 100),
  ('O=C(Cn1nc(C(=O)O)c2ccccc2c1=O)NCC1CCCO1 (stereo unspecified)', 103),
  ('COc1ccc(C2C(C(=O)N3CCN(c4ccc(OC)cc4)CC3)c3ccccc3C(=O)N2C)cc1 (stereo unspecified)', 60.6),
  ('Cc1c(Br)cc(C(=O)NCCCN2CCOCC2)c(C)c1C', 94.8),
  ('Cc1ccc(NC(=O)CN(c2cc(C)cc(C)c2)S(=O)(=O)c2c(C)noc2C)nc1', 69.4);
